FYI, the data here is from patent US12091385B2.

- Tested on: Human lung adenocarcinoma cell A549
- assay-details: CCK-8 cell proliferation assay, A549
- Assay type: cell-based
- experimental-conditions: A549 cells, 72 hrs with drug, CCK-8, OD 450 nm
pIC50: −log10 of the molar value.
Items are presented alongside their recorded pIC50.

>  <compound>
N#CN=C(NCCCCCN1CCN(C(=O)c2cc3ccccc3o2)CC1)Nc1ccncc1 [BSS-PC022]

>  <pIC50>
7.15

$$$$
>  <compound>
N#CN=C(NCCCCCN1CCN(C(=O)C2CCCO2)CC1)Nc1ccncc1 (stereo not drawn) [BSS-PC011]

>  <pIC50>
7.40

$$$$
>  <compound>
N#CN=C(NCCCCCC1CCN(C(=O)c2ccccc2)C1)Nc1cccnc1 (stereo not drawn) [BSS-PC044]

>  <pIC50>
7.39

$$$$
>  <compound>
N#CN=C(NCCCCCCC1CCN(C(=O)c2ccco2)C1)Nc1ccncc1 (stereo not drawn) [BSS-PC057]

>  <pIC50>
7.28

$$$$
>  <compound>
N#CN=C(NCCCCCN1CCN(C(=O)C2Cc3ccccc3O2)CC1)Nc1ccncc1 (stereo not drawn) [BSS-PC021]

>  <pIC50>
7.10

$$$$
>  <compound>
N#CN=C(NCCCCCN1CCN(C(=O)c2ccco2)CC1)Nc1ccnc(F)c1 [BSS-PC013]

>  <pIC50>
7.32

$$$$
>  <compound>
N#CN=C(NCCCCCCC1CCN(C(=O)c2ccco2)C1)Nc1cc(F)nc(F)c1 (stereo not drawn) [BSS-PC076]

>  <pIC50>
7.48

$$$$
>  <compound>
N#CN=C(NCCCCCN1CCN(C(=O)c2[nH]ccc2F)CC1)Nc1ccncc1 [BSS-PC024]

>  <pIC50>
7.28

$$$$
>  <compound>
N#CN=C(NCCCCCN1CCN(C(=O)c2cc3ccccc3[nH]2)CC1)Nc1ccncc1 [BSS-PC020]

>  <pIC50>
7.21

$$$$
>  <compound>
N#CN=C(NCCCCCCC1CCN(C(=O)c2cccs2)C1)Nc1cccnc1 (stereo not drawn) [BSS-PC060]

>  <pIC50>
7.51

$$$$
>  <compound>
N#CN=C(NCCCCCC1CCN(C(=O)c2[nH]ccc2F)C1)Nc1ccncc1 (stereo not drawn) [BSS-PC049]

>  <pIC50>
7.46

$$$$
>  <compound>
COc1cccc(OC)c1C(=O)N1CCN(CCCCCNC(=NC#N)Nc2cccnc2)CC1 [BSS-PC027]

>  <pIC50>
7.20

$$$$
>  <compound>
N#CN=C(NCCCCCCC1CCN(C(=O)c2ccco2)C1)Nc1cc(Cl)nc(Cl)c1 (stereo not drawn) [BSS-PC080]

>  <pIC50>
7.18

$$$$
>  <compound>
N#CN=C(NCCCCCN1CCN(C(=O)c2ccco2)CC1)Nc1ccncc1 [BSS-PC007]

>  <pIC50>
7.44

$$$$
>  <compound>
N#CN=C(NCCCCCN1CCN(C(=O)c2cccs2)CC1)Nc1ccncc1 [BSS-PC004]

>  <pIC50>
7.46

$$$$
>  <compound>
N#CN=C(NCCCCCC1CCN(C(=O)c2ccccc2)C1)Nc1ccncc1 (stereo not drawn) [BSS-PC028]

>  <pIC50>
7.30

$$$$
>  <compound>
N#CN=C(NCCCCCC1CCN(C(=O)c2cc3ccccc3[nH]2)C1)Nc1ccncc1 (stereo not drawn) [BSS-PC045]

>  <pIC50>
7.10

$$$$
>  <compound>
N#CN=C(NCCCCCCC1CCN(C(=O)c2ccccc2)C1)Nc1ccncc1 (stereo not drawn) [BSS-PC054]

>  <pIC50>
7.48

$$$$
